# assay.details: Inhibition of gamma secretase-mediated Abeta40 production
reported.endpoint: IC50 (nM)
Give a bare numeral; the unit nM is implied.

compound	IC50, nM
COC[C@H]1COc2c(F)ccc(F)c2[C@@]1(C)S(=O)(=O)c1ccc(Cl)cc1 (relative stereo)	270
CCC1(S(=O)(=O)c2ccc(Cl)cc2)CCOc2c(F)ccc(F)c21 (racemic)	72

// sample C[C@@H]1C[C@](C)(S(=O)(=O)c2ccc(Cl)cc2)c2c(F)ccc(F)c2O1 (relative stereo) , its IC50 was 1200

// sample "O=S(=O)(N[C@@H]1CC[C@@]2(S(=O)(=O)c3ccc(Cl)cc3)c3c(F)ccc(F)c3OC[C@H]2C1)C1CC1" , its IC50 was 8.4

// sample O=S(=O)(c1ccc(Cl)cc1)C1CCOc2c(F)ccc(F)c21 (racemic) , its IC50 was 1600

// sample "O=S(=O)(N[C@@H]1CC[C@@]2(S(=O)(=O)c3ccc(Cl)cc3)c3c(F)ccc(F)c3OC[C@H]2C1)c1ccccn1" , its IC50 was 7.6

// sample O=C1CCC2(S(=O)(=O)c3ccc(Cl)cc3)c3c(F)ccc(F)c3OCC2C1 (racemic) , its IC50 was 13

// sample CC(=O)NC1CCC2(S(=O)(=O)c3ccc(Cl)cc3)c3c(F)ccc(F)c3OCC2C1 (racemic) , its IC50 was 107

// sample "O=S(=O)(N[C@@H]1CC[C@@]2(S(=O)(=O)c3ccc(Cl)cc3)c3c(F)ccc(F)c3OC[C@H]2C1)C(F)(F)F" , its IC50 was 27.1

// sample C[C@H]1COc2c(F)ccc(F)c2[C@@H]1S(=O)(=O)c1ccc(Cl)cc1 (relative stereo) , its IC50 was 64

// sample O=S(=O)(c1ccc(Cl)cc1)C12CCC(O)CC1COc1c(F)ccc(F)c12 (racemic) , its IC50 was 28

// sample O=S(=O)(c1ccc(Cl)cc1)[C@H]1c2c(F)ccc(F)c2OC[C@@H]1CO (relative stereo) , its IC50 was 510

// sample CC1(S(=O)(=O)c2ccc(Cl)cc2)CCOc2c(F)ccc(F)c21 (racemic) , its IC50 was 808

// sample C[C@H]1COc2c(F)ccc(F)c2[C@@]1(C)S(=O)(=O)c1ccc(Cl)cc1 (relative stereo) , its IC50 was 110

// sample CCC1(S(=O)(=O)c2ccc(Cl)cc2)CC(CO)Oc2c(F)ccc(F)c21 (mixture of isomers) , its IC50 was 620

// sample CC[C@@H]1C[C@](CC)(S(=O)(=O)c2ccc(Cl)cc2)c2c(F)ccc(F)c2O1 (relative stereo) , its IC50 was 830

// sample NC1CCC2(S(=O)(=O)c3ccc(Cl)cc3)c3c(F)ccc(F)c3OCC2C1 (racemic) , its IC50 was 1700

----------
# assay.details: AUC in CRND8 mouse
# Assay type: ADME, organism-based
# Parameters: concentration or dose not given beside the values
# condition.notes: plasma
Quick reference for AUC among some molecules
Give a bare numeral; the unit ng·h/mL is implied.

Reference set, count: 2
molecule	unit.abbreviation	AUC
O=C1CCC2(S(=O)(=O)c3ccc(Cl)cc3)c3c(F)ccc(F)c3OCC2C1 (racemic)	ng·h/mL	60
O=S(=O)(N[C@@H]1CC[C@@]2(S(=O)(=O)c3ccc(Cl)cc3)c3c(F)ccc(F)c3OC[C@H]2C1)C(F)(F)F	ng·h/mL	5050

// sample "O=S(=O)(N[C@@H]1CC[C@@]2(S(=O)(=O)c3ccc(Cl)cc3)c3c(F)ccc(F)c3OC[C@H]2C1)C1CC1" , its AUC was 1910

// sample O=S(=O)(c1ccc(Cl)cc1)C12CCC(O)CC1COc1c(F)ccc(F)c12 (racemic) , its AUC was 164

// sample CC(=O)NC1CCC2(S(=O)(=O)c3ccc(Cl)cc3)c3c(F)ccc(F)c3OCC2C1 (racemic) , its AUC was 1720

----------
# assay.details: Inhibition of gamma secretase-mediated Abeta40 production by cell based assay
Quick reference for pIC50 among some compounds
Please report pIC50 as the negative decimal logarithm of the molar concentration, giving only the number.

compound	pIC50
O=S(=O)(N[C@@H]1CC[C@@]2(S(=O)(=O)c3ccc(Cl)cc3)c3c(F)ccc(F)c3OC[C@H]2C1)c1ccccn1	7.17
O=S(=O)(N[C@@H]1CC[C@@]2(S(=O)(=O)c3ccc(Cl)cc3)c3c(F)ccc(F)c3OC[C@H]2C1)C1CC1	8.03
CC(=O)NC1CCC2(S(=O)(=O)c3ccc(Cl)cc3)c3c(F)ccc(F)c3OCC2C1 (racemic)	6.84

// sample O=S(=O)(c1ccc(Cl)cc1)C12CCC(O)CC1COc1c(F)ccc(F)c12 (racemic) , its pIC50 was 7.60

// sample "O=S(=O)(N[C@@H]1CC[C@@]2(S(=O)(=O)c3ccc(Cl)cc3)c3c(F)ccc(F)c3OC[C@H]2C1)C(F)(F)F" , its pIC50 was 6.97

// sample O=C1CCC2(S(=O)(=O)c3ccc(Cl)cc3)c3c(F)ccc(F)c3OCC2C1 (racemic) , its pIC50 was 7.77

----------
# assay.details: Inhibition of gamma secretase-mediated Abeta42 production by cell based assay
pIC50: −log10 of the molar value.
Decision: pIC50 >= 8 yields T, all other cases yield F.

These recorded examples may help you get a feel for the data.
compound	assigned.label
O=S(=O)(N[C@@H]1CC[C@@]2(S(=O)(=O)c3ccc(Cl)cc3)c3c(F)ccc(F)c3OC[C@H]2C1)c1ccccn1	F
O=S(=O)(c1ccc(Cl)cc1)C12CCC(O)CC1COc1c(F)ccc(F)c12 (racemic)	F
CC(=O)NC1CCC2(S(=O)(=O)c3ccc(Cl)cc3)c3c(F)ccc(F)c3OCC2C1 (racemic)	F
O=S(=O)(N[C@@H]1CC[C@@]2(S(=O)(=O)c3ccc(Cl)cc3)c3c(F)ccc(F)c3OC[C@H]2C1)C(F)(F)F	F

Attention now turns to another entry.
Challenge: State whether the measured pIC50 reaches 8, counting equality as reaching it, for "O=S(=O)(N[C@@H]1CC[C@@]2(S(=O)(=O)c3ccc(Cl)cc3)c3c(F)ccc(F)c3OC[C@H]2C1)C1CC1"
Response given: T
